Attribution: ChEMBL document CHEMBL1153724

# targetUnderTest: Nucleic Acid
# runDescription: Inhibition of fluorescein labeled Tat-peptide binding to HIV1 TAR RNA after 60 mins by FRET assay
# Format: nucleic-acid assay, Human immunodeficiency virus 1
pEC50: −log10 of the molar value.

[
  {
    "moleculeSmiles": "C[C@@H](CN[C@H](CN[C@H](CNCCC(N)=O)Cc1ccc(O)cc1)Cc1ccc(O)cc1)NC[C@H](Cc1ccc(O)cc1)NC[C@H](Cc1ccc(O)cc1)NC[C@@H](N)Cc1ccc(O)cc1",
    "targetUnderTest": "Nucleic Acid",
    "pEC50": 5.48
  },
  {
    "moleculeSmiles": "C[C@@H](CN[C@H](CN[C@H](CN[C@H](CNCCC(N)=O)Cc1ccc(O)cc1)Cc1ccc(O)cc1)Cc1ccc(O)cc1)NC[C@H](Cc1ccc(O)cc1)NC[C@@H](N)Cc1ccc(O)cc1",
    "targetUnderTest": "Nucleic Acid",
    "pEC50": 5.79
  },
  {
    "moleculeSmiles": "NCCCC[C@@H](CN[C@H](CNCCC(N)=O)Cc1ccc(O)cc1)NC[C@H](Cc1ccc(O)cc1)NC[C@H](CCCCN)NC[C@H](Cc1ccc(O)cc1)NC[C@@H](N)Cc1ccc(O)cc1",
    "targetUnderTest": "Nucleic Acid",
    "pEC50": 6.44
  },
  {
    "moleculeSmiles": "NC(=O)CCNC[C@H](Cc1ccc(O)cc1)NC[C@H](Cc1ccc(O)cc1)NC[C@H](Cc1ccc(O)cc1)NC[C@H](Cc1ccc(O)cc1)NC[C@@H](N)Cc1ccc(O)cc1",
    "targetUnderTest": "Nucleic Acid",
    "pEC50": 5.53
  },
  {
    "moleculeSmiles": "C[C@@H](CN[C@H](CNCCC(N)=O)Cc1ccc(O)cc1)NC[C@H](Cc1ccc(O)cc1)NC[C@H](Cc1ccc(O)cc1)NC[C@H](Cc1ccc(O)cc1)NC[C@@H](N)Cc1ccc(O)cc1",
    "targetUnderTest": "Nucleic Acid",
    "pEC50": 5.71
  }
]
